- tested_system: Left-right determination factor 2 (Homo sapiens)
- test_method_notes: small molecules binding LEFTY2 protein – biochemical, small-molecule microarray, 635 nm fluorescence scan, primary screen (AID 1110)
- details: higher = more signal
experimental_readout: composite z-score
Answers are plain numbers.

Here are 6 molecules. What values of composite z-score were reported for them?
1. O=C(Cc1ccccc1)[C@H]1C2C=CCCC(c3ccccc3)=C2CN1Cc1ccccc1 (stereo partly specified)
2. CS(=O)(=O)CCOC(=O)C1=CC(CCCO)=CC(c2ccc(CN3CCCC3)cc2)N(Cc2sc3ccccc3c2Cl)C=C1C(=O)OCCS(C)(=O)=O (stereo unspecified)
3. OCCCC1=CC(c2ccc(CN3CCCC3)cc2)N(Cc2cc3c(cc2Br)OCO3)CC1 (stereo unspecified)
4. COCCOC(=O)N1C(=O)[C@@]2(c3cc(C#CCNC(N)=O)ccc31)[C@H](C(N)=O)[C@H]1C(=O)O[C@H](c3ccccc3)[C@H](c3ccccc3)N1[C@@H]2c1ccccc1OCCO
5. NCCCCCNC(=O)[C@@H]1C[C@@H]2C(=O)N[C@@H](CCCCN)C(=O)N2[C@@H]1c1ccc(O)cc1
6. COC(=O)[C@@]1(Cc2ccc(OC)cc2)[C@H]2c3cc(C(=O)N(C)C)n(Cc4ccc(OC(F)(F)F)cc4)c3C[C@H]2CN1C(=O)c1ccccc1

Result:
1: 0.174; 2: 1.12; 3: 0.477; 4: 0.467; 5: 1.15; 6: -0.0954

---

- System: Plasmodium falciparum Sir2 (PF13_0152, Sir2A)
- test_method_notes: Plasmodium falciparum Sir2A binding compounds – biochemical, small-molecule microarray, 635 nm fluorescence, primary screen (AID 1098);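 further: score merges spot fluorescence intensity with its signal-to-noise ratio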
- details: fluorescence 635 nm, higher = more signal
Would you mind telling me the reported composite z-score of each entry?
One number for each entry.

[
  {
    "molecule": "[N-]=[N+]=NCc1ccccc1[C@H]1OC(c2ccc(OCCCO)cc2)=N[C@@]1(Cc1ccccc1N=[N+]=[N-])C(=O)NCC(O)CO (stereo not given in full)",
    "composite z-score": 1.12
  }
]

Here are 5 molecules. What values of composite z-score were reported for them?
1. CN(C)C(=O)[C@@]1(Cc2ccccc2CN=[N+]=[N-])N=C(c2ccc(OCCCO)cc2)O[C@H]1c1ccccc1N=[N+]=[N-]
2. CC1CC/C=C\[C@H]2OC34C=CCN(C(C)(C)C)C(=O)[C@H]3N(CCCCCO)C(=O)[C@@H]4C2C(=O)O1 (stereo not given in full)
3. O=C(NCCN1CCOCC1)[C@@H]1c2ccccc2C(=O)N(Cc2ccccc2Cl)[C@H]1c1ccc(CO)cc1
4. CCOC(=O)C[C@H]1[C@H](OC(=O)Cc2ccc3c(c2)OCO3)[C@@H](NC(=O)C2CCCCC2)c2cc(OCCCO)ccc2N1C(=O)c1ccccc1
5. [N-]=[N+]=NCc1ccccc1C[C@@]1(C(N)=O)N=C(c2ccc(OCCCO)cc2)O[C@@H]1c1ccccc1

Result:
[1.63, 0.261, -0.855, 0.0882, 1.15]

Here are 4 molecules. What values of composite z-score were reported for them?
1. NC(=O)NCC#Cc1ccc2c(c1)[C@]1(C(=O)N2)[C@H](c2ccccc2OCCO)N2[C@H](c3ccccc3)[C@H](c3ccccc3)OC(=O)[C@H]2[C@@H]1C(=O)O
2. CC(C)c1ccc(NN2C(C(O)c3ccc(C#N)cc3)C=CC3C(=O)N(c4ccccc4)C(=O)C32)cc1 (stereo not given)
3. COc1cc2c(cc1O)C(C1CC1)N(C)CC2 (stereo not given)
4. NCCCCCNC(=O)[C@@H]1C[C@@H]2C(=O)N[C@@H](CCCCN)C(=O)N2[C@@H]1c1ccc(O)cc1

Result:
[1.27, 1.28, 0.353, 1.57]

Here are 2 molecules. What values of composite z-score were reported for them?
1. COC(=O)[C@@H]1N=C(c2ccc(OCCCO)cc2)O[C@@H]1C
2. CC1CC/C=C\[C@H]2OC34C=CCN(C(C)C)C(=O)[C@H]3N(CCO)C(=O)[C@@H]4C2C(=O)O1 (stereo not given in full)

Result:
1. -0.0756
2. 0.501
